Measurement target: T1, LILRA1-His (Acro, LI1-H82E8) (human, UniProt O75019 17-461)
T1 construct: Bought protein. 'Human' stands at the head of the list of coated proteins; not shown: His tag
T1 sequence (O75019 17-461 limits assumed): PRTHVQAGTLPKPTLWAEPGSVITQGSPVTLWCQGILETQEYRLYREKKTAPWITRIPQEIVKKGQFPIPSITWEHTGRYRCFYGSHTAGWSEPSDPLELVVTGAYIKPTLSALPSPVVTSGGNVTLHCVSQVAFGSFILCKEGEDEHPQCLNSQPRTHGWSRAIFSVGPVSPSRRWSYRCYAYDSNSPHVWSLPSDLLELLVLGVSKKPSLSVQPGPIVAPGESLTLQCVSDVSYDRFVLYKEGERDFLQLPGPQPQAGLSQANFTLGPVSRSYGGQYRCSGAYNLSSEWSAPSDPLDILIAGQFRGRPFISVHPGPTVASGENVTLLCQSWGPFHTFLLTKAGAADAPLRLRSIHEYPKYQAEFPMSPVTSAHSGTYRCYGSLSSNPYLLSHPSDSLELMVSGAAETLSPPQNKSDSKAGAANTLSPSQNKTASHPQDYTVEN
Assay name: ELISA, coated protein 1 µg/mL, antibody 10 µg/mL
Value type: absorbance at 450 nm (absorbance at 450 nm)

>>> assay_value("fully human-derived antibody P2m (antibody, human IgG1, kappa, L234A L235A, V domains shown, Full chains) VH: QVQLVQSGAEVKKPGSSVKVSCKASGYTFTSYDISWVRQAPGQGLEWMGGIIPIFGTANYAQKFQGRVTITADESTSTAYMELSSLRSEDTAVYYCTAGIFLATAYWGQGTLVTVSS VL: DIQMTQSPSSMSASVGDRVTISCQASQDIQNYLNWYQQRPGQAPKLLIYDASTLETGVPSRFSGSGSGTYFTLTISSLQPEDVATYYCQQYENVPITFGQGTRLEIKR")
0.0469
